All figures here come from patent US20260240907A1.

biological target: T1, KRAS G12V peptide on HLA-A*02:01 (human); test: multimer staining
T1 peptide: KLVVVGAVGV
Measured endpoint: binding result

Binder	Measured endpoint	Experimental value
TCR8 (TCR, V domains shown) Valpha: GEDVEQSLFLSVREGDSSVINCTYTDSSSTYLYWYKQEPGAGLQLLTYIFSNMDMKQDQRLTVLLNKKDKHLSLRIADTQTGDSAIYFCAESIRDTDKLIFGTGTRLQVFP Vbeta: GAVVSQHPSRVICKSGTSVKIECRSLDFQATTMFWYRQFPKKSLMLMATSNEGSKATYEQGVEKDKFLINHASLTLSTLTVTSAHPEDSSFYICSARDTSGTTRNEQFFGPGTRLTVL	binding result	recognises
TCR10 (TCR, V domains shown) Valpha: GEDVEQSLFLSVREGDSSVINCTYTDSSSTYLYWYKQEPGAGLQLLTYIFSNMDMKQDQRLTVLLNKKDKHLSLRIADTQTGDSAIYFCAEMKDTDKLIFGTGTRLQVFP Vbeta: DGGITQSPKYLFRKEGQNVTLSCEQNLNHDAMYWYRQDPGQGLRLIYYSQIVNDFQKGDIAEGYSVSREKKESFPLTVTSAQKNPTAFYLCASTQVGTGELFFGEGSRLTVL	binding result	recognises
TCR15 (TCR, V domains shown) Valpha: GEDVEQSLFLSVREGDSSVINCTYTDSSSTYLYWYKQEPGAGLQLLTYIFSNMDMKQDQRLTVLLNKKDKHLSLRIADTQTGDSAIYFCADFLRDTDKLIFGTGTRLQVFP Vbeta: GAVVSQHPSWVICKSGTSVKIECRSLDFQATTMFWYRQFPKQSLMLMATSNEGSKATYEQGVEKDKFLINHASLTLSTLTVTSAHPEDSSFYICSARDRTSTDTQYFGPGTRLTVL	binding result	recognises
